Source: ChEMBL document CHEMBL2439999

assay: Bioavailability in monkey at 3 mg/kg, iv and po; assay type: ADME, organism-based, Macaca mulatta; conditions: rhesus monkey, in vivo
Readout name: bioavailability
Quick note: unit goes after the number.

## Input Entry Cc1nc2c(c(-c3ccc(Cl)cc3Cl)c1CN)C(=O)N(CC(=O)N(C)C)C2 (single isomer, unassigned; atropisomer) : reported bioavailability = ?
## Output 84%

###

assay: Metabolic stability in mouse liver microsomes assessed as compound remaining at 3 uM after 10 mins; assay type: ADME, Microsome; conditions: liver microsomes, read-out: Stability
Rule: remaining at 10 min, 3 µM below 70% gives criterion met, anything at or above gives criterion not met.

Example entries and their recorded answers appear below.
{"Compound": "Cc1nc2c(c(-c3ccc(Cl)cc3Cl)c1CN)C(=O)NC2", "Assigned category": "criterion not met"}
{"Compound": "Cc1nc2c(c(-c3ccc(Cl)cc3Cl)c1CN)C(=O)N(CC(=O)N1CCCCC1)C2 (single isomer, unassigned; atropisomer)", "Assigned category": "criterion met"}

Let us examine a further case.
## Input Please state whether remaining at 10 min, 3 µM is below 70% for "CCOC(=O)N1Cc2nc(C)c(CN)c(-c3ccc(Cl)cc3Cl)c2C1=O"
## Output criterion met

###

test: Plasma protein binding in human after 3 hrs; format: ADME, cell-free; details: read-out: PPB (converted)
Readout name: fraction unbound at 3 h

## Input Entry Cc1nc2c(c(-c3ccc(Cl)cc3Cl)c1CN)C(=O)N(CC(=O)N(C)C)C2 (single isomer, unassigned; atropisomer) : reported fraction unbound at 3 h = ?
## Output 0.82

###

assay: Permeability of the compound at pH 6.5 by PAMPA; type: ADME; settings: read-out: permeability
Readout name: Papp (nm/s)
Numbers only, in nm/s.

## Input Entry Cc1nc2c(c(-c3ccc(Cl)cc3Cl)c1CN)C(=O)N(CC(=O)N(C)C)C2 (single isomer, unassigned; atropisomer) : reported Papp = ?
## Output 130

###

assay: Plasma protein binding in monkey after 3 hrs; assay type: ADME, cell-free, Macaca mulatta; conditions: rhesus monkey, read-out: PPB (converted)
Readout name: fraction unbound at 3 h
Give bare numbers.

## Input Entry Cc1nc2c(c(-c3ccc(Cl)cc3Cl)c1CN)C(=O)N(CC(=O)N(C)C)C2 (single isomer, unassigned; atropisomer) : reported fraction unbound at 3 h = ?
## Output 0.84

###

assay: Permeability from apical to basolateral side in human Caco2 cells at pH 7.4; format: ADME, cell-based; details: Caco-2, pH 7.4, read-out: permeability
Readout name: Papp A→B (×10⁻⁶ cm/s)
One number for each entry, in ×10⁻⁶ cm/s.

## Input Entry Cc1nc2c(c(-c3ccc(Cl)cc3Cl)c1CN)C(=O)N(CC(=O)N(C)C)C2 (single isomer, unassigned; atropisomer) : reported Papp A→B = ?
## Output 2.6

###

assay: Metabolic stability in mouse liver microsomes assessed as compound remaining at 3 uM after 10 mins; format: ADME, Microsome; conditions: liver microsomes, read-out: Stability
I'd be grateful if you could share measured remaining at 10 min, 3 µM for these entries.
Quick note: unit goes after the number.

Take a look at these entries with their results.
{"Molecule": "CCN(CC)C(=O)CN1Cc2nc(C)c(CN)c(-c3ccc(Cl)cc3Cl)c2C1=O (single isomer, unassigned; atropisomer)", "remaining at 10 min, 3 µM": "50%"}
{"Molecule": "Cc1nc2c(c(-c3ccc(Cl)cc3Cl)c1CN)C(=O)N(CC(N)=O)C2 (single isomer, unassigned; atropisomer)", "remaining at 10 min, 3 µM": "100%"}
{"Molecule": "Cc1nc2c(c(-c3ccc(Cl)cc3Cl)c1CN)C(=O)N(Cc1ncco1)C2 (single isomer, unassigned; atropisomer)", "remaining at 10 min, 3 µM": "94%"}

Please find the next molecule below.
## Input Entry CCCN(C)C(=O)CN1Cc2nc(C)c(CN)c(-c3ccc(Cl)cc3Cl)c2C1=O (single isomer, unassigned; atropisomer) : reported remaining at 10 min, 3 µM = ?
## Output 53%

###

assay: Tmax in mouse at […], po; assay type: ADME, organism-based; parameters: dose 0.82 mg/kg, route oral; conditions: in vivo
Readout name: Tmax (h)
Give bare numbers, in h.

## Input Entry Cc1nc2c(c(-c3ccc(Cl)cc3Cl)c1CN)C(=O)N(CC(=O)N(C)C)C2 (single isomer, unassigned; atropisomer) : reported Tmax = ?
## Output 1

###

test: Permeability of the compound at pH 5.5 by PAMPA; type: ADME; details: read-out: permeability
Readout name: Papp (×10⁻⁶ cm/s)
One number for each entry, in ×10⁻⁶ cm/s.

## Input Entry Cc1nc2c(c(-c3ccc(Cl)cc3Cl)c1CN)C(=O)N(CC(=O)N(C)C)C2 (single isomer, unassigned; atropisomer) : reported Papp = ?
## Output 1.97

###

I'd be grateful if you could share measured Papp for these entries.
assay: Permeability of the compound at pH 7.4 by PAMPA; type: ADME; conditions: read-out: permeability

{"Compound": "Cc1nc2c(c(-c3ccc(Cl)cc3Cl)c1CN)C(=O)N(CC(=O)N(C)C)C2 (single isomer, unassigned; atropisomer)", "Papp": "33 ×10⁻⁶ cm/s"}

## Input Entry "CNC(=O)CN1Cc2nc(C)c(CN)c(-c3ccc(Cl)cc3Cl)c2C1=O" : reported Papp = ?
## Output 8.7 ×10⁻⁶ cm/s

###

experiment: Cmax in mouse at […], po; format: ADME, organism-based; set-up: dose 0.82 mg/kg, route oral; conditions: in vivo
Readout name: Cmax (nM)
Give bare numbers, in nM.

## Input Entry Cc1nc2c(c(-c3ccc(Cl)cc3Cl)c1CN)C(=O)N(CC(=O)N(C)C)C2 (single isomer, unassigned; atropisomer) : reported Cmax = ?
## Output 56

###

experiment: Bioavailability in mouse at […], iv and po; format: ADME, organism-based; conditions: in vivo
Readout name: bioavailability (%)
Answers are plain numbers, in %.

## Input Entry Cc1nc2c(c(-c3ccc(Cl)cc3Cl)c1CN)C(=O)N(CC(=O)N(C)C)C2 (single isomer, unassigned; atropisomer) : reported bioavailability = ?
## Output 41

###

assay: Half life in rat at […], iv and po; assay type: ADME, organism-based; parameters: dose 0.82 mg/kg, route oral; conditions: in vivo
Readout name: half-life (h)
Answers are plain numbers, in h.

## Input Entry Cc1nc2c(c(-c3ccc(Cl)cc3Cl)c1CN)C(=O)N(CC(=O)N(C)C)C2 (single isomer, unassigned; atropisomer) : reported half-life = ?
## Output 1.5

###

test: Plasma protein binding in dog after 3 hrs; type: ADME, cell-free, Canis lupus familiaris; conditions: read-out: PPB (converted)
Readout name: fraction unbound at 3 h
Give bare numbers.

## Input Entry Cc1nc2c(c(-c3ccc(Cl)cc3Cl)c1CN)C(=O)N(CC(=O)N(C)C)C2 (single isomer, unassigned; atropisomer) : reported fraction unbound at 3 h = ?
## Output 0.73

###

assay: Metabolic stability in mouse liver microsomes assessed as compound remaining at 3 uM after 10 mins; format: ADME, Microsome; details: liver microsomes, read-out: Stability
Readout name: remaining at 10 min, 3 µM (%)
Numbers only, in %.

// each listed compound needs a value for remaining at 10 min, 3 µM
1. Cc1nc2c(c(-c3ccc(Cl)cc3Cl)c1CN)C(=O)N(CC(=O)N(C)C)C2 (single isomer, unassigned; atropisomer)
2. COC[C@H](C)N1Cc2nc(C)c(CN)c(-c3ccc(Cl)cc3Cl)c2C1=O
3. Cc1nc2c(c(-c3ccc(Cl)cc3Cl)c1CN)C(=O)N(C[C@@H]1CCCO1)C2 (single isomer, unassigned; atropisomer)
4. CCN(CC)C(=O)CCN1Cc2nc(C)c(CN)c(-c3ccc(Cl)cc3Cl)c2C1=O (single isomer, unassigned; atropisomer)
5. Cc1nc2c(c(-c3ccc(Cl)cc3Cl)c1CN)C(=O)N(Cc1ccn(C)n1)C2 (single isomer, unassigned; atropisomer)
6. Cc1nc2c(c(-c3ccc(Cl)cc3Cl)c1CN)C(=O)N(C[C@@H]1CCCN1S(=O)(=O)C1CC1)C2 (single isomer, unassigned; atropisomer)

## Output
1. 100
2. 24
3. 50
4. 5
5. 54
6. 36

###

assay: Metabolic stability in mouse liver microsomes assessed as compound remaining at 3 uM after 10 mins; format: ADME, Microsome; settings: liver microsomes, read-out: Stability
Readout name: remaining at 10 min, 3 µM

{"Compound": "Cc1nc2c(c(-c3ccc(Cl)cc3Cl)c1CN)C(=O)N(Cc1ccccc1)C2", "Readout name": "remaining at 10 min, 3 µM", "Assay result": "48%"}
{"Compound": "Cc1nc2c(c(-c3ccc(Cl)cc3Cl)c1CN)C(=O)N(CC(=O)N1CCCC1)C2 (single isomer, unassigned; atropisomer)", "Readout name": "remaining at 10 min, 3 µM", "Assay result": "73%"}
{"Compound": "Cc1nc2c(c(-c3ccc(Cl)cc3Cl)c1CN)C(=O)N(C[C@@H]1CCCN1)C2 (single isomer, unassigned; atropisomer)", "Readout name": "remaining at 10 min, 3 µM", "Assay result": "100%"}
{"Compound": "COc1ccccc1N1Cc2nc(C)c(CN)c(-c3ccc(Cl)cc3Cl)c2C1=O (single isomer, unassigned; atropisomer)", "Readout name": "remaining at 10 min, 3 µM", "Assay result": "64%"}
{"Compound": "Cc1cc(CN2Cc3nc(C)c(CN)c(-c4ccc(Cl)cc4Cl)c3C2=O)no1 (single isomer, unassigned; atropisomer)", "Readout name": "remaining at 10 min, 3 µM", "Assay result": "63%"}

Please find the next compound below.
## Input Entry Cc1nc2c(c(-c3ccc(Cl)cc3Cl)c1CN)C(=O)N(C[C@H]1CCCO1)C2 (single isomer, unassigned; atropisomer) : reported remaining at 10 min, 3 µM = ?
## Output 37%
